- experiment-description: Binary supramolecular self-assembly systems of polymer and target: guest concentration over incubation time (Comparative Example 2)
- Assay type: physicochemical
- condition-details: binary system with 0.5% polymer 102; incubation 3 h
measurement-name: Concentration of the target in the solution measured after different incubation time (µg/mL)
Write down the numeric answer in µg/mL and omit the unit.

The reported Concentration of the target in the solution measured after different incubation time of the compound CNC(=O)c1ccc(N2C(=S)N(c3ccc(C#N)c(C(F)(F)F)c3)C(=O)C2(C)C)cc1F [Enzalutamide] was 75.5

The reported Concentration of the target in the solution measured after different incubation time of the compound "CC(C)OC(=O)CCC/C=C\C[C@@H]1[C@@H](/C=C/C(F)(F)COc2ccccc2)[C@H](O)C[C@@H]1O" was 66.1

The reported Concentration of the target in the solution measured after different incubation time of the compound CCOc1nc2cccc(C(=O)OC(C)OC(=O)OC3CCCCC3)c2n1Cc1ccc(-c2ccccc2-c2nnn[nH]2)cc1 (stereo not drawn) was 43.8

###

- experiment-description: Guest molecule concentration after incubation in initial medium without polymer (Comparative Example 1)
- Assay type: physicochemical
- condition-details: 6 h; 37° C.; pH 6.8 phosphate buffer
Could you mark each record Met if its Concentration of guest molecule measured after different incubated time falls strictly under 30000 ng/mL, and Not met if it equals or exceeds it?

Bench note: check whether "CCc1cc2c(cc1N1CCC(N3CCOCC3)CC1)C(C)(C)c1[nH]c3cc(C#N)ccc3c1C2=O" shows Concentration of guest molecule measured after different incubated time below 30000 ng/mL
Met

Bench note: check whether "CC(=O)c1c(C)c2cnc(Nc3ccc(N4CCNCC4)cn3)nc2n(C2CCCC2)c1=O" shows Concentration of guest molecule measured after different incubated time below 30000 ng/mL
Not met

Bench note: check whether "O=C(O)[C@H]1O[C@@H](Oc2cc3oc(-c4ccc(O)cc4)cc(=O)c3c(O)c2O)[C@H](O)[C@@H](O)[C@@H]1O" shows Concentration of guest molecule measured after different incubated time below 30000 ng/mL
Not met

Bench note: check whether "COc1ccc(-n2nc(C(N)=O)c3c2C(=O)N(c2ccc(N4CCCCC4=O)cc2)CC3)cc1" shows Concentration of guest molecule measured after different incubated time below 30000 ng/mL
Not met

Bench note: check whether "COc1cc2nccc(Oc3ccc(NC(=O)NC4CC4)c(Cl)c3)c2cc1C(N)=O" shows Concentration of guest molecule measured after different incubated time below 30000 ng/mL
Met

Bench note: check whether "CC1=C[C@H](O)CC(C)(C)[C@H]1/C=C/C(C)=C/C=C/C(C)=C/C=C/C=C(C)/C=C/C=C(C)/C=C/C1=C(C)C[C@@H](O)CC1(C)C" shows Concentration of guest molecule measured after different incubated time below 30000 ng/mL
Met

Bench note: check whether "CCCNS(=O)(=O)Nc1ncnc(OCCOc2ncc(Br)cn2)c1-c1ccc(Br)cc1" shows Concentration of guest molecule measured after different incubated time below 30000 ng/mL
Met

###

- experiment-description: Binary supramolecular self-assembly systems of polymer and target: guest concentration over incubation time (Comparative Example 2)
- Type: physicochemical
- condition-details: binary system with 0.5% polymer 110; incubation 0.5 h
- Experimental: Experiments were conducted according to the steps in Comparative Example 1, and quantitative analysis was carried out using the analytical method for each target to investigate the regulation ability […] stacking.
Kindly state Concentration of the target in the solution measured after different incubation time for each of the entries shown.
Write down the numeric answer in µg/mL and omit the unit.

The reported Concentration of the target in the solution measured after different incubation time of the molecule "C=C(C)[C@@H]1CCC(C)=C[C@H]1c1c(O)cc(CCCCC)cc1O" was 168.9

The reported Concentration of the target in the solution measured after different incubation time of the molecule CNC(=O)c1ccc(N2C(=S)N(c3ccc(C#N)c(C(F)(F)F)c3)C(=O)C2(C)C)cc1F [Enzalutamide] was 53.8

The reported Concentration of the target in the solution measured after different incubation time of the molecule "O=C1C[C@@H](c2ccc(O)cc2)Oc2cc(O)cc(O)c21" was 112.7

The reported Concentration of the target in the solution measured after different incubation time of the molecule CCOc1nc2cccc(C(=O)OC(C)OC(=O)OC3CCCCC3)c2n1Cc1ccc(-c2ccccc2-c2nnn[nH]2)cc1 (stereo not shown) was 4.7

The reported Concentration of the target in the solution measured after different incubation time of the molecule "CC1(C)CCC(CN2CCN(c3ccc(C(=O)NS(=O)(=O)c4ccc(NCC5CCOCC5)c([N+](=O)[O-])c4)c(Oc4cnc5[nH]ccc5c4)c3)CC2)=C(c2ccc(Cl)cc2)C1" was 385.5

The reported Concentration of the target in the solution measured after different incubation time of the molecule "CCc1cc2c(cc1N1CCC(N3CCOCC3)CC1)C(C)(C)c1[nH]c3cc(C#N)ccc3c1C2=O" was 1.9

The reported Concentration of the target in the solution measured after different incubation time of the molecule "CCCSc1nc(N[C@@H]2C[C@H]2c2ccc(F)c(F)c2)c2nnn([C@@H]3C[C@H](OCCO)[C@@H](O)[C@H]3O)c2n1" was 17.0

###

- experiment-description: Binary supramolecular self-assembly systems of polymer and target: guest concentration over incubation time (Comparative Example 2)
- Type: physicochemical
- condition-details: binary system with 0.5% polymer 103; incubation 3 h
Kindly state Concentration of the target in the solution measured after different incubation time for each of the entries shown.
Write down the numeric answer in µg/mL and omit the unit.

The reported Concentration of the target in the solution measured after different incubation time of the compound CNC(=O)c1ccc(N2C(=S)N(c3ccc(C#N)c(C(F)(F)F)c3)C(=O)C2(C)C)cc1F [Enzalutamide] was 88.4

The reported Concentration of the target in the solution measured after different incubation time of the compound COc1cc2nccc(Oc3ccc(NC(=O)NC4CC4)c(Cl)c3)c2cc1C(N)=O [Lenvatinib] was 11.3

The reported Concentration of the target in the solution measured after different incubation time of the compound CNC(=O)c1cc(Oc2ccc(NC(=O)Nc3ccc(Cl)c(C(F)(F)F)c3)cc2)ccn1 [Sorafenib] was 61.5

The reported Concentration of the target in the solution measured after different incubation time of the compound COC(=O)[C@H](c1ccccc1Cl)N1CCc2sccc2C1 [Clopidogrel, clopidogrel] was 69.6

###

- experiment-description: Binary supramolecular self-assembly systems of polymer and target: guest concentration over incubation time (Comparative Example 2)
- Format: physicochemical
- condition-details: binary system with 0.5% polymer 101; incubation 6 h
Kindly state Concentration of the target in the solution measured after different incubation time for each of the entries shown.
Write down the numeric answer in µg/mL and omit the unit.

The reported Concentration of the target in the solution measured after different incubation time of the compound Cc1cn(-c2cc(NC(=O)c3ccc(C)c(Nc4nccc(-c5cccnc5)n4)c3)cc(C(F)(F)F)c2)cn1 [Nilotinib] was 149.9

The reported Concentration of the target in the solution measured after different incubation time of the compound C=C(C)[C@@H]1CCC(C)=C[C@H]1c1c(O)cc(CCCCC)cc1O [Cannabidiol] was 342.5

The reported Concentration of the target in the solution measured after different incubation time of the compound CCc1cc2c(cc1N1CCC(N3CCOCC3)CC1)C(C)(C)c1[nH]c3cc(C#N)ccc3c1C2=O [Alectinib, alectinib] was 9.4

The reported Concentration of the target in the solution measured after different incubation time of the compound CNC(=O)c1cc(Oc2ccc(NC(=O)Nc3ccc(Cl)c(C(F)(F)F)c3)cc2)ccn1 [Sorafenib] was 759.3

The reported Concentration of the target in the solution measured after different incubation time of the compound CCOC(=O)C1=C(C)NC(C)=C(C(=O)OC)C1c1cccc(Cl)c1Cl (centres unmarked) [Felodipine] was 147.5

The reported Concentration of the target in the solution measured after different incubation time of the compound CC(C)OC(=O)CCC/C=C\C[C@@H]1[C@@H](/C=C/C(F)(F)COc2ccccc2)[C@H](O)C[C@@H]1O [Tafluprost, tafluprost] was 23.1

The reported Concentration of the target in the solution measured after different incubation time of the compound COC(=O)[C@H](c1ccccc1Cl)N1CCc2sccc2C1 [Clopidogrel, clopidogrel] was 361.7

The reported Concentration of the target in the solution measured after different incubation time of the compound CC1(C)CCC(CN2CCN(c3ccc(C(=O)NS(=O)(=O)c4ccc(NCC5CCOCC5)c([N+](=O)[O-])c4)c(Oc4cnc5[nH]ccc5c4)c3)CC2)=C(c2ccc(Cl)cc2)C1 [Venetoclax, venetoclax] was 252.6

The reported Concentration of the target in the solution measured after different incubation time of the compound CCCNS(=O)(=O)Nc1ncnc(OCCOc2ncc(Br)cn2)c1-c1ccc(Br)cc1 [Macitentan] was 46.2

The reported Concentration of the target in the solution measured after different incubation time of the compound CCCSc1nc(N[C@@H]2C[C@H]2c2ccc(F)c(F)c2)c2nnn([C@@H]3C[C@H](OCCO)[C@@H](O)[C@H]3O)c2n1 [Ticagrelor] was 46.6

The reported Concentration of the target in the solution measured after different incubation time of the compound O=C1C[C@@H](c2ccc(O)cc2)Oc2cc(O)cc(O)c21 [Naringenin] was 126.4
